Origin of values: patent US9655828B2

Catalogue of compounds with associated Day 7 (ITA value)
system: histological explants from lower abdomen tissue; assay: Ex-vivo study: chromametric measurement of skin explants (ITA); parameters: species or system human; conditions: 4% substance, 30 μl applied daily for 2 h; day 7
REPORTED ENDPOINT: Day 7 (ITA value)

- COMPOUND: "O=C(CO)[C@H](O)CO [Erythrulose]"
  REPORTED: "4%"
- COMPOUND: "O=C(CO)CO [DHA, 1,3-dihydroxyacetone]"
  REPORTED: "−1%"
- COMPOUND: "O=C[C@H](O)[C@H]1OC(=O)[C@@H](O)[C@H]1O [Glucuronolactone]"
  REPORTED: "−2%"
- COMPOUND: "COc1ccc(/C=C/C(=O)OC2C(=O)OC3C4OC(C)(C)OC4OC23)cc1 (stereo not shown) [Compound (Ia)]"
  REPORTED: "−10%"
